So I've got a bunch of molecules here, and I need their pEC50 values.
target: hFXR (Homo sapiens); assay: In Vitro FXR Assay (TK); details: CV-1 cells transfected with hFXR, hRXR, TK-ECRE-luc and pCMX-YFP; incubated with compound for 18 hrs; luminescence
Sequence (Q96RI1 whole entry): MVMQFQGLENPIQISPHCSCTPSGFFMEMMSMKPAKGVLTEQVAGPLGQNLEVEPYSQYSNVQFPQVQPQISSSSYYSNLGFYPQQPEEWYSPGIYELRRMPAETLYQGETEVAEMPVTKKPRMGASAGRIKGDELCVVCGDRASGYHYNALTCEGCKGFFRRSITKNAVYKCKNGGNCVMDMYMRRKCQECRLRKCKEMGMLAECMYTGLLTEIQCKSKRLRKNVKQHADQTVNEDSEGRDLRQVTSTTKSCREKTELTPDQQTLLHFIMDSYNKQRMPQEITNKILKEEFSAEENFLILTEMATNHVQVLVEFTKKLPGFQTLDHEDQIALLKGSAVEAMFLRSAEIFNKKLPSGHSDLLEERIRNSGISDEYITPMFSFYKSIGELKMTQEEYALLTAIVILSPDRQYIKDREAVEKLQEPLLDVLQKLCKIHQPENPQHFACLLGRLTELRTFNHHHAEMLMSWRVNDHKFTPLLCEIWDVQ
Sequence (P19793 whole entry partner): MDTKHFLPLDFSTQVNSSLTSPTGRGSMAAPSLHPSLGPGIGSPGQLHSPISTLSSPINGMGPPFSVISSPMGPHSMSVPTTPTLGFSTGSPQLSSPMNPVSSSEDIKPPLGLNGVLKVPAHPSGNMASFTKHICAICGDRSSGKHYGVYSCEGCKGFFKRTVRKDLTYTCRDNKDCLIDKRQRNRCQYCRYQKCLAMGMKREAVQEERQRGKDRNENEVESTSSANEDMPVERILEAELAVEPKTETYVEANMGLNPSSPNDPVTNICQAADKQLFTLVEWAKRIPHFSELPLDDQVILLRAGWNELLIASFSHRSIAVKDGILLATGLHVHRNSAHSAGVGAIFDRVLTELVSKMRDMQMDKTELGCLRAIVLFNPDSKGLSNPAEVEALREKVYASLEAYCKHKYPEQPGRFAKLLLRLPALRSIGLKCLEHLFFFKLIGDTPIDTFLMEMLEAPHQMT
pEC50: −log10 of the molar value.

Give recorded pEC50 with hFXR (Homo sapiens) for the following molecule: "COc1ccc(C23CCC(CN(c4cccc(-c5cnn(C(C)C)c5)c4)C(=O)[C@H]4CC[C@H](CC(=O)O)CC4)(CC2)CC3)cc1C"
≥ 7.30

Give recorded pEC50 with hFXR (Homo sapiens) for the following molecule: "COc1ccc(C23CCC(CN(c4cc(-n5cc(C(C)C)cn5)ccn4)C(=O)[C@H]4CC[C@H](CC(=O)O)CC4)(CC2)CC3)cc1C"
6.00 to 7.30

Give recorded pEC50 with hFXR (Homo sapiens) for the following molecule: "COc1ccc([C@H]2CC[C@H](CN(c3cc(-c4cnn(C(C)(C)C)c4)ccn3)C(=O)[C@H]3CC[C@H](CC(=O)O)CC3)CC2)cc1C"
6.00 to 7.30

Give recorded pEC50 with hFXR (Homo sapiens) for the following molecule: "COc1ccc([C@H]2CC[C@H](CN(c3cccc(-c4cnn(C(C)C)c4)c3)C(=O)[C@H]3CC[C@H](C(=O)O)CC3)CC2)cc1C"
≥ 7.30

Give recorded pEC50 with hFXR (Homo sapiens) for the following molecule: "COc1ccc(C23CCC(CN(c4cc(-c5nc(C(C)C)no5)ccn4)C(=O)[C@H]4CC[C@H](CC(=O)O)CC4)(CC2)CC3)cc1C"
6.00 to 7.30

Give recorded pEC50 with hFXR (Homo sapiens) for the following molecule: "COc1ccc(C23CCC(CN(c4cc(-c5cnn(C(C)C)c5)ccn4)C(=O)[C@H]4CC[C@H](CC(=O)O)CC4)(CC2)CC3)cc1C"
≥ 7.30

Give recorded pEC50 with hFXR (Homo sapiens) for the following molecule: COc1ccc(C23CCC(CN(c4cncc(-c5cnn(C(C)C)c5)c4)C(=O)[C@H]4CC[C@H](CC(=O)O)CC4)(CC2)CC3)cc1C (relative stereo)
6.00 to 7.30

Give recorded pEC50 with hFXR (Homo sapiens) for the following molecule: "COc1ccc(C23CCC(CN(c4cccc(-c5cnn(C(C)(C)C)c5)c4)C(=O)[C@H]4CC[C@H](C(=O)O)CC4)(CC2)CC3)cc1C"
≥ 7.30

Give recorded pEC50 with hFXR (Homo sapiens) for the following molecule: COc1ccc(C23CCC(CN(C(=O)[C@@H]4CCC[C@H](C(=O)O)C4)c4cc(-c5cnn(C(C)C)c5)ccn4)(CC2)CC3)cc1C (relative stereo)
5.00 to 6.00

Give recorded pEC50 with hFXR (Homo sapiens) for the following molecule: "COc1ncc(C23CCC(CN(c4cc(-c5cnn(C(C)(C)C)c5)ccn4)C(=O)[C@H]4CC[C@H](CC(=O)O)CC4)(CC2)CC3)cc1C"
≥ 7.30

Give recorded pEC50 with hFXR (Homo sapiens) for the following molecule: COc1ccc(C23CCC(CN(C(=O)[C@@H]4CCC[C@@H](C(=O)O)C4)c4cc(-c5cnn(C(C)C)c5)ccn4)(CC2)CC3)cc1C (relative stereo)
6.00 to 7.30

Give recorded pEC50 with hFXR (Homo sapiens) for the following molecule: "COc1c(C)cc(C23CCC(CN(c4cc(-c5cnn(C(C)C)c5)ncn4)C(=O)[C@H]4CC[C@H](CC(=O)O)CC4)(CC2)CC3)cc1C"
6.00 to 7.30
